Data origin, for the record: PubChem BioAssay AID488857

Exercise: for every item that follows, state its recorded inhibition.
- assayOverview: ASC/caspase-1 reporter retest in S. cerevisiae at one dose, specificity check for NALP1 project (AID 488857)
- particulars: S. cerevisiae ASC/Caspase-1, beta-galactosidase luminescence, 24 h; at 10 µM; stronger effect = higher value
The campaign covered roughly 1,400 compounds. About 560 (40%) were called active. So high a share suggests a set chosen from earlier hits. Some of the results follow.

Please review the entries below; each comes with its answer.
[[record]]
compound = "Nc1c2c(nc3sc4c(c13)CCCCC4)CCCC2"
result = "91.1% (active)"

[[record]]
compound = "CN1/C(=C\\C=C\\C2=[N+](C)c3ccc4ccccc4c3C2(C)C)C(C)(C)c2ccccc21"
result = "99.7% (active)"

[[record]]
compound = "O=C(c1cc2c(s1)-c1ccccc1OC2)N1CCC2(CC1)OCCO2"
result = "53.8% (active)"


Would you be so kind as to report inhibition for each listed record?
1. COc1cc(/C=C(/C)[N+](=O)[O-])ccc1OCc1ccccc1Cl
2. Clc1ccc2nc3c(c(-c4ccccc4)c2c1)CNCC3

Reply:
1. 80.2% (active)
2. 57% (active)
